Catalogue of compounds with associated inhibition at 10 µM
System: Jurkat cells
Assay: Prevention of Fas-induced apoptosis in Jurkat cells (WST-8)
Format: cell-based
Details: Homo sapiens, 10 micromolar, read-out: % Prevention of Fas - induced Jurkat cell apoptosis at 10 micromolar
readout kind: inhibition at 10 µM

{"structure notation": "C[C@H](NC(=O)C(=O)Nc1c(F)cccc1F)C(=O)N[C@@H](CCCC(=O)O)C(=O)COc1c(F)c(F)cc(F)c1F", "system": "Jurkat cells", "readout kind": "inhibition at 10 µM", "result": "≤ 10%"}
{"structure notation": "C[C@H](NC(=O)C(=O)Nc1c(F)cccc1F)C(=O)N[C@@H](CCOCc1ccc(Cl)cc1)C(=O)COc1c(F)c(F)cc(F)c1F", "system": "Jurkat cells", "readout kind": "inhibition at 10 µM", "result": "≤ 10%"}
{"structure notation": "O=C(O)CC[C@H](NC(=O)C1(NC(=O)C(=O)Nc2c(F)cccc2F)CCCC1)C(=O)COc1c(F)c(F)cc(F)c1F", "system": "Jurkat cells", "readout kind": "inhibition at 10 µM", "result": "≤ 10%"}
{"structure notation": "C[C@H](NC(=O)C(=O)Nc1c(F)cccc1F)C(=O)N[C@@H](CCOC(=O)Oc1ccccc1)C(=O)COc1c(F)c(F)cc(F)c1F", "system": "Jurkat cells", "readout kind": "inhibition at 10 µM", "result": "≤ 10%"}
{"structure notation": "C[C@H](NC(=O)C(=O)Nc1c(F)cccc1F)C(=O)N[C@@H](CCOCc1ccsc1)C(=O)COc1c(F)c(F)cc(F)c1F", "system": "Jurkat cells", "readout kind": "inhibition at 10 µM", "result": "≤ 10%"}
{"structure notation": "C[C@H](NC(=O)C(=O)Nc1cccc(F)c1)C(=O)N[C@@H](CCC(=O)O)C(=O)COc1c(F)c(F)cc(F)c1F", "system": "Jurkat cells", "readout kind": "inhibition at 10 µM", "result": "≤ 10%"}
{"structure notation": "Cc1ccc(NC(=O)C(=O)N[C@@H](C)C(=O)N[C@@H](CCC(=O)O)C(=O)COc2c(F)c(F)cc(F)c2F)cc1", "system": "Jurkat cells", "readout kind": "inhibition at 10 µM", "result": "≤ 10%"}
{"structure notation": "C[C@H](NC(=O)C(=O)Nc1c(F)cccc1F)C(=O)N[C@@H](CCOC(=O)c1ccccc1)C(=O)COc1c(F)c(F)cc(F)c1F", "system": "Jurkat cells", "readout kind": "inhibition at 10 µM", "result": "≤ 10%"}
{"structure notation": "C[C@H](NC(=O)C(=O)Nc1c(F)cccc1F)C(=O)N[C@@H](CCO)C(=O)COc1c(F)c(F)cc(F)c1F", "system": "Jurkat cells", "readout kind": "inhibition at 10 µM", "result": "≤ 10%"}
{"structure notation": "C[C@H](NC(=O)C(=O)Nc1c(F)cccc1F)C(=O)N[C@@H](CCC(=O)O)C(=O)COc1c(F)c(F)cc(F)c1F", "system": "Jurkat cells", "readout kind": "inhibition at 10 µM", "result": "≤ 10%"}
{"structure notation": "O=C(O)CC[C@H](NC(=O)Cn1ccc2ccc(Cl)cc2c1=O)C(=O)COc1c(F)c(F)cc(F)c1F", "system": "Jurkat cells", "readout kind": "inhibition at 10 µM", "result": "≤ 10%"}
{"structure notation": "C[C@H](NC(=O)C(=O)Nc1ccccc1C(C)(C)C)C(=O)N[C@@H](CCC(=O)O)C(=O)COc1c(F)c(F)cc(F)c1F", "system": "Jurkat cells", "readout kind": "inhibition at 10 µM", "result": "≤ 10%"}
{"structure notation": "C[C@H](NC(=O)C(=O)Nc1ccc(F)cc1)C(=O)N[C@@H](CCC(=O)O)C(=O)COc1c(F)c(F)cc(F)c1F", "system": "Jurkat cells", "readout kind": "inhibition at 10 µM", "result": "≤ 10%"}
{"structure notation": "C[C@H](NC(=O)C(=O)Nc1c(F)cccc1F)C(=O)N[C@@H](CCC(=O)O)C(=O)COc1cc(C(F)(F)F)cc(C(F)(F)F)c1", "system": "Jurkat cells", "readout kind": "inhibition at 10 µM", "result": "≤ 10%"}
{"structure notation": "COCC[C@H](NC(=O)[C@H](C)NC(=O)C(=O)Nc1c(F)cccc1F)C(=O)COc1c(F)c(F)cc(F)c1F", "system": "Jurkat cells", "readout kind": "inhibition at 10 µM", "result": "≤ 10%"}
{"structure notation": "O=C(O)CC[C@H](NC(=O)CNC(=O)C(=O)Nc1c(F)cccc1F)C(=O)COc1c(F)c(F)cc(F)c1F", "system": "Jurkat cells", "readout kind": "inhibition at 10 µM", "result": "≤ 10%"}
{"structure notation": "Cc1cccc(NC(=O)C(=O)N[C@@H](C)C(=O)N[C@@H](CCC(=O)O)C(=O)COc2c(F)c(F)cc(F)c2F)c1", "system": "Jurkat cells", "readout kind": "inhibition at 10 µM", "result": "≤ 10%"}
{"structure notation": "C[C@H](NC(=O)C(=O)Nc1c(F)cccc1F)C(=O)N[C@@H](CCOCc1ccccc1)C(=O)COc1c(F)c(F)cc(F)c1F", "system": "Jurkat cells", "readout kind": "inhibition at 10 µM", "result": "≤ 10%"}
{"structure notation": "C[C@H](NC(=O)C(=O)Nc1c(F)cccc1F)C(=O)N[C@@H](CCC(=O)O)C(=O)COc1ccnc(C(F)(F)F)n1", "system": "Jurkat cells", "readout kind": "inhibition at 10 µM", "result": "≤ 10%"}
{"structure notation": "CC(C)(NC(=O)C(=O)Nc1c(F)cccc1F)C(=O)N[C@@H](CCC(=O)O)C(=O)COc1c(F)c(F)cc(F)c1F", "system": "Jurkat cells", "readout kind": "inhibition at 10 µM", "result": "≤ 10%"}

// data source = patent US11597703B2
